- test: Daily 5+ ATP to rats for six days, 5+ ATP/1+ ATP ratio in dried blood spots by mass spectrometry
- assayConditions: rat, red blood cells in dried blood spots, 100 mcg, in vivo ATP pool
reportedProperty: half-life (h)

>>> result("Nc1ncnc2c1ncn2[C@@H]1O[C@H](COP(=O)(O)OP(=O)(O)OP(=O)(O)O)[C@@H](O)[C@H]1O [ATP, adenosine triphosphate]")
72

----------
- test: ATP half-life corresponding value in humans
- assayConditions: human, in vivo, corresponding to the rat value
reportedProperty: half-life

>>> result("Nc1ncnc2c1ncn2[C@@H]1O[C@H](COP(=O)(O)OP(=O)(O)OP(=O)(O)O)[C@@H](O)[C@H]1O [ATP, adenosine triphosphate]")
"~240 h"
